Tested on: MOLT-4
Assay: NCI tumour cell line growth inhibition, 48 h
The source made the active and inactive calls. Cut-off read from the data, not from the text of the source: active = GI50 up to about 1.1 µM and inactive = higher.
readout: GI50

{"compound": "CC(C)(C)c1cc(OCc2nn3c(Cc4ccccc4)nnc3s2)c(Cl)cc1OCc1nn2c(Cc3ccccc3)nnc2s1", "measurementTarget": "MOLT-4", "readout": "GI50", "recordedMeasurement": "8.93 µM (inactive)"}
{"compound": "N#CC1C2CCC3(CC2CCN1C(=O)c1ccccc1)OCCO3 (centres undefined)", "measurementTarget": "MOLT-4", "readout": "GI50", "recordedMeasurement": "> 100 µM (inactive)"}
{"compound": "CC1=C(/C(C)=N/NS(=O)(=O)c2ccc(C)cc2)Sc2ccccc2N1", "measurementTarget": "MOLT-4", "readout": "GI50", "recordedMeasurement": "52.7 µM (inactive)"}
{"compound": "CC1(c2sccc2Cl)CC(c2sccc2Cl)=C(C#N)C(=C(C#N)C#N)N1 (centres undefined)", "measurementTarget": "MOLT-4", "readout": "GI50", "recordedMeasurement": "38.7 µM (inactive)"}
{"compound": "C/N=c1/oc2ccccc2cc1C(N)=O", "measurementTarget": "MOLT-4", "readout": "GI50", "recordedMeasurement": "> 100 µM (inactive)"}
{"compound": "O=C(O)c1ccc(Nc2cnc3ccc(C(F)(F)F)cc3n2)cc1", "measurementTarget": "MOLT-4", "readout": "GI50", "recordedMeasurement": "19.9 µM (inactive)"}
{"compound": "O=C1CCCC2=C1CC1=C(CCCC1=O)N2c1cccc2ccccc12", "measurementTarget": "MOLT-4", "readout": "GI50", "recordedMeasurement": "78 µM (inactive)"}
{"compound": "Nc1c(S(=O)(=O)O)cc2cc(S(=O)(=O)O)ccc2c1/N=N/c1ccc(-c2ccc(/N=N/c3c(N)c(S(=O)(=O)O)cc4cc(S(=O)(=O)O)ccc34)c(S(=O)(=O)O)c2)cc1", "measurementTarget": "MOLT-4", "readout": "GI50", "recordedMeasurement": "95.7 µM (inactive)"}
{"compound": "O=C1NC(=O)C2C(=O)NC(=O)C1C2(c1ccccc1)c1cc[nH]c1 (centres undefined)", "measurementTarget": "MOLT-4", "readout": "GI50", "recordedMeasurement": "> 100 µM (inactive)"}

---

System: SF-295
Assay: NCI tumour cell line growth inhibition, 48 h
The source made the active and inactive calls. Cut-off read from the data, not from the text of the source: active = GI50 up to about 1.1 µM and inactive = higher.
readout: GI50

{"compound": "COc1cc2c(cc1C[C@H]1[C@@H]3C[C@H]4c5c(c6ccccc6n5C)C[C@@H]([C@@H]3CO[C@]1(C)OC(C)=O)N4C)c1c(n2C)C2C[C@H]3C(C(C)=O)=COC[C@H]3[C@H](C1)N2C", "recordedMeasurement": "4.67 µM (inactive)"}
{"compound": "CC1CN=C(N(C(=O)Nc2ccc(Cl)cc2)c2cccc(Cl)c2)S1 (stereo not given)", "recordedMeasurement": "20.1 µM (inactive)"}
{"compound": "Cc1cccc2c1Oc1ncccc1C2NC(=O)CN(C)C (stereo not given)", "recordedMeasurement": "> 10 µM (inactive)"}
{"compound": "O=C(/C=C/c1ccccc1)CC1OC(=O)c2ccccc21 (stereo not given)", "recordedMeasurement": "85.5 µM (inactive)"}
{"compound": "Nc1nc(CCl)nc(N2CCOCC2)n1", "recordedMeasurement": "29.8 µM (inactive)"}

Attribution: ChEMBL document CHEMBL1201862
